- Tested on: RKO
- protocolNotes: Cell proliferation (cell count by microscopy), RKO
- Assay type: cell-based
- measurementParameters: Homo sapiens; RKO (BRAF, PIK3CA), 72 h treatment, single agent tested 13 nM-10 μM; 50% of cell counts relative to DMSO
pIC50: −log10 of the molar value.
recordedMetric: pIC50

Could you share which pIC50 value was measured for C#Cc1cccc(Nc2ncnc3cc(OCCOC)c(OCCOC)cc23)c1 [Erlotinib] ? < 5.00

* * *

- Tested on: COLO-205
- protocolNotes: Cell proliferation (cell count by microscopy), COLO-205
- Format: cell-based
- measurementParameters: Homo sapiens; COLO-205 (BRAF), 72 h treatment, single agent tested 13 nM-10 μM; 50% of cell counts relative to DMSO
recordedMetric: IC50

Could you share which IC50 value was measured for C#Cc1cccc(Nc2ncnc3cc(OCCOC)c(OCCOC)cc23)c1 [Erlotinib] ? > 10 µM
